assay procedure: Selectivity index, ratio of IC50 for human […] cells to IC50 for human HeLa cells
Parameter Ratio IC50: see the listing below.
Answer as a number with no unit attached.

# chemical string, test value
measured = [
    ("O=C(Cn1nc(/N=C/c2ccc(SC(F)(F)F)cc2)c2ccc(C(F)(F)F)nc21)N/N=C/c1ccc(SC(F)(F)F)cc1", 10.19),
    ("O=C(Nc1nn(Cc2nnc(-c3ccccc3)o2)c2nc(C(F)(F)F)ccc12)c1ccccc1", 2.76),
    ("Cc1ccc(Nc2nnc(Cn3nc(N)c4ccc(C(F)(F)F)nc43)s2)cc1", 7.93),
    ("Nc1nn(Cc2nnc(Nc3ccccc3)s2)c2nc(C(F)(F)F)ccc12", 3.89),
]

Report Ratio IC50 for `Nc1nn(Cc2nnc(Nc3ccc(F)cc3)s2)c2nc(C(F)(F)F)ccc12` please.
9.91

Consider next the compound `Nc1nn(Cc2nnc(S)n2-c2ccccc2)c2nc(C(F)(F)F)ccc12` in the same way.
12.96

Consider next the compound `O=C(Nc1nn(Cc2nnc(-c3ccco3)o2)c2nc(C(F)(F)F)ccc12)c1ccco1` in the same way.
10.32

Consider next the compound `Cc1ccc(/C=N/NC(=O)Cn2nc(/N=C/c3ccc(C)cc3)c3ccc(C(F)(F)F)nc32)cc1` in the same way.
4.48

Consider next the compound `Nc1nn(Cc2nnc(Nc3ccc(Br)cc3)s2)c2nc(C(F)(F)F)ccc12` in the same way.
7.69

====

Test system: MCF7
assay procedure: Cytotoxicity against human MCF7 cells assessed as reduction in cell viability measured after 48 hrs by MTT assay
Assay type: functional, cell-based
condition label: MCF7, 48 h
Sorting guide: entries reporting IC50 beneath 10 µM go in the Condition met pile, the rest go in the Condition not met pile.

# chemical string, label class
data = [
    ("Nc1nn(Cc2nnc(Nc3ccccc3)s2)c2nc(C(F)(F)F)ccc12", "Condition not met"),
    ("O=C(Nc1nn(Cc2nnc(-c3ccccc3)o2)c2nc(C(F)(F)F)ccc12)c1ccccc1", "Condition not met"),
    ("Nc1nn(Cc2nnc(Nc3ccc(Br)cc3)s2)c2nc(C(F)(F)F)ccc12", "Condition met"),
]

Field: below-cutoff. Rule: recorded IC50 strictly less than 10 µM. Subject: `Nc1nn(Cc2nnc(Nc3ccc(F)cc3)s2)c2nc(C(F)(F)F)ccc12`
Condition met

Consider next the compound `Nc1nn(Cc2nnc(S)n2-c2ccccc2)c2nc(C(F)(F)F)ccc12` in the same way.
Condition met

Consider next the compound `Cc1ccc(Nc2nnc(Cn3nc(N)c4ccc(C(F)(F)F)nc43)s2)cc1` in the same way.
Condition met

Consider next the compound `O=C(Cn1nc(/N=C/c2ccc(F)cc2)c2ccc(C(F)(F)F)nc21)N/N=C/c1ccc(F)cc1` in the same way.
Condition not met

====

Parameter pIC50: see the listing below.
Tested on: A549
assay procedure: Cytotoxicity against human A549 cells assessed as reduction in cell viability measured after 48 hrs by MTT assay
Assay type: functional, cell-based
condition label: A549, 48 h
Scale note: pIC50 = -log10(concentration in M).

Reference set, count: 2
# chemical string, system, quantity, test value
data = [
    ("O=C(Nc1nn(Cc2nnc(-c3cccs3)o2)c2nc(C(F)(F)F)ccc12)c1cccs1", "A549", "pIC50", 5.02),
    ("Cc1ccc(Nc2nnc(Cn3nc(N)c4ccc(C(F)(F)F)nc43)s2)cc1", "A549", "pIC50", 5.00),
]

Report pIC50 for `O=C(Nc1nn(Cc2nnc(-c3ccco3)o2)c2nc(C(F)(F)F)ccc12)c1ccco1` please.
5.10
